Molecular target: EGFR[T790M/C797S/L858R] (Homo sapiens, UniProt P00533, C797S/L858R/T790M)
Construct: purchased Carna Bio
Sequence (P00533 25-1210 T790M/C797S/L858R): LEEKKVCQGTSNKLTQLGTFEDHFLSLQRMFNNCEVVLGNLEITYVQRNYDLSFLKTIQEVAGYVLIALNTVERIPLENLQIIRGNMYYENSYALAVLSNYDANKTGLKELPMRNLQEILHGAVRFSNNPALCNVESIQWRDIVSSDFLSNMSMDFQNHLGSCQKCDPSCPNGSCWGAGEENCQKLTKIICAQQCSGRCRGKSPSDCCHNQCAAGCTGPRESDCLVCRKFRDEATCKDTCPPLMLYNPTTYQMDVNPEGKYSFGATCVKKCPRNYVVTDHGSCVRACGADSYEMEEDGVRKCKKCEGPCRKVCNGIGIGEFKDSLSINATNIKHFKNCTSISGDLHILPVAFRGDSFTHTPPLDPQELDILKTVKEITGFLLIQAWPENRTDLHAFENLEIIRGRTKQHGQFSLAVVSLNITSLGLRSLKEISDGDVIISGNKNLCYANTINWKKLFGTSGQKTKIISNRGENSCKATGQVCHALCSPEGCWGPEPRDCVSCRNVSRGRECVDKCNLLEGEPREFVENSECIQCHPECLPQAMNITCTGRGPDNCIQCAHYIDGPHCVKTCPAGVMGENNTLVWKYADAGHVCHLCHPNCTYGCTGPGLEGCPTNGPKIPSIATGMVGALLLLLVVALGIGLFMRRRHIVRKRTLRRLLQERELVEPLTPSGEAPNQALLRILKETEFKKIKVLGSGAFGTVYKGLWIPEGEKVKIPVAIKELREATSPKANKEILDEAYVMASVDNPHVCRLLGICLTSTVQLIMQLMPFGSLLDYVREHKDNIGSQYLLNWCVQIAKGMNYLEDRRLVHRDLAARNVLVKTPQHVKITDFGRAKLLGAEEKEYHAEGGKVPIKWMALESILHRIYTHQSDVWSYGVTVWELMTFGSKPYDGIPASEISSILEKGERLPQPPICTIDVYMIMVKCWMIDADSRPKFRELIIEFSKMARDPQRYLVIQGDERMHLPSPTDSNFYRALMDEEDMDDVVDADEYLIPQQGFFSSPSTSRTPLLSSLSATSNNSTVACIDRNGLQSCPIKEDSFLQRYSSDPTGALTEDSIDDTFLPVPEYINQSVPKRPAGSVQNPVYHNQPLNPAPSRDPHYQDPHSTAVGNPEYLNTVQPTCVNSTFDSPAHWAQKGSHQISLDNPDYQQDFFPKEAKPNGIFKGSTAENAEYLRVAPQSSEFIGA
Assay: Inhibition of EGFR[T790M/C797S/L858R] biochemical enzymatic activity (HTRF)
Details: EGFR T790M-C797S-L858R, 1 mM ATP, 1 h, room temperature, read-out: IC50 (nM) @T790M- C797S - L858R
Catalogue of molecules with associated IC50
readout kind: IC50 (nM)

molecule: CN1CCC2(CCN(c3ccc4nc5n(c4c3)C34CCC(CN(CCOc6c(cnn6C)-c6cc(cn(C)c6=O)C(=O)N5)C3)C4)C2)C1 (single isomer, unassigned) [Example A81A]
readout kind: IC50
value relation sign: >
value reported: 5000
//
molecule: CN1CCOC2(C1)CN(c1ccc3nc4n(c3c1)C13CCC(CN(CCOc5c(cnn5C)-c5cc(cn(C)c5=O)C(=O)N4)C1)C3)C2 (single isomer, unassigned) [Example A86B]
readout kind: IC50
value relation sign: =
value reported: 8.1
//
molecule: CN(C)C1CCN(c2ccc3nc4n(c3c2)C23CCC(CN(CCOc5c(cnn5C)-c5cc(cn(C)c5=O)C(=O)N4)C2)C3)CC1(F)F (single isomer, unassigned) [Example A97A]
readout kind: IC50
value relation sign: >
value reported: 5000
//
molecule: CN1CCC2(CN(c3ccc4nc5n(c4c3)C34CCC(CN(CCOc6c(cnn6C)-c6cc(cn(C)c6=O)C(=O)N5)C3)C4)C2)C(F)(F)C1 (single isomer, unassigned) [Example A91A]
readout kind: IC50
value relation sign: >
value reported: 5000
//
molecule: CN1CCC2(C1)CN(c1ccc3nc4n(c3c1)C13CCC(CN(CCOc5c(cnn5C)-c5cc(cn(C)c5=O)C(=O)N4)C1)C3)C2 (single isomer, unassigned) [Example A78B]
readout kind: IC50
value relation sign: =
value reported: 1.4
//
molecule: CN1CCN(C2CCN(c3ccc4nc5n(c4c3)C34CCC(CN(CCOc6c(cnn6C)-c6cc(cn(C)c6=O)C(=O)N5)C3)C4)CC2)CC1 (single isomer, unassigned) [Example A106B]
readout kind: IC50
value relation sign: =
value reported: 1.4
//
molecule: CN1CCC2(CCN(c3ccc4nc5n(c4c3)C34CCC(CN(CCOc6c(cnn6C)-c6cc(cn(C)c6=O)C(=O)N5)C3)C4)C2)C1 (single isomer, unassigned) [Example A81B]
readout kind: IC50
value relation sign: =
value reported: 2.3
//
molecule: C[C@@H]1CCCOc2cc(F)c(F)cc2-c2cc(cn(C)c2=O)C(=O)Nc2nc3ccc(N4CCN(C)CC4)cc3n2C1
readout kind: IC50
value relation sign: =
value reported: 63
//
molecule: CN1CCN(c2ccc3nc4n(c3c2)CCN(CC(F)(F)F)CCOc2c(cnn2C2CC2)-c2cc(cn(C)c2=O)C(=O)N4)CC1
readout kind: IC50
value relation sign: =
value reported: 3.4
//
molecule: CN1CCC2CN(c3ccc4nc5n(c4c3)C34CCC(CN(CCOc6c(cnn6C)-c6cc(cn(C)c6=O)C(=O)N5)C3)C4)CC21 (single isomer, unassigned) [Example A79B]
readout kind: IC50
value relation sign: =
value reported: 8.3
//
molecule: Cn1ncc2c1OCCN1CCCCC(C)(C1)n1c(nc3ccc(N4CCOCC4)cc31)NC(=O)c1cc-2c(=O)n(C)c1 (centres unmarked)
readout kind: IC50
value relation sign: >
value reported: 5000
